# assay.details: Example 19 crossover pharmacokinetics of four oral tablet formulations in fasted dogs
# Assay type: in vivo, beagle dogs
# stated.conditions: male, beagle, dog, plasma, po, 200 mg, Example 19, fasted dogs, 200 mg tablet PO, mean; read-out: AUC0-rt
# Procedure: Pharmacokinetics parameters of formulations of Compound I and its salts in dogs were determined by orally administering a test formulation tablet at 200 mg of active (Compound I or salt) per dog. Blood samples were taken at various times after administration, plasma prepared, and submitted to analysis for parent drug using a qualified LC-MS-MS assay. Pharmacokinetics parameters derived from the plasma analytical data were determined using non-compartmental analysis. […]
measurement.name: AUC (ng·h/mL)
The response must be a number in ng·h/mL with no trailing unit.

Lookup: Entry under review: Cc1ccc(S(=O)(=O)O)cc1.Cn1cc(-c2cn(-c3ccc(OC(F)(F)F)cc3)c(=O)c3ncn(C)c23)cn1 [mono-tosylate] . Reported AUC?
Found: 78900

====

Each entry below carries its recorded pH (1 hr).
# assay.details: Solubility in pure water at 25° C. with PXRD of solid residues
# Assay type: physicochemical
# stated.conditions: pH of solubility sample, pure water, 25° C., one hour
I'd appreciate a reply containing only the number, no unit.

Here is how some compounds turned out for pH (1 hr).
| compound | pH (1 hr) |
| --- | --- |
| Cn1cc(-c2cn(-c3ccc(OC(F)(F)F)cc3)c(=O)c3ncn(C)c23)cn1.Cn1cc(-c2cn(-c3ccc(OC(F)(F)F)cc3)c(=O)c3ncn(C)c23)cn1.O=S(=O)(O)c1cccc2c(S(=O)(=O)O)cccc12 [hemi-napadisylate] | 1.53 |
| Cn1cc(-c2cn(-c3ccc(OC(F)(F)F)cc3)c(=O)c3ncn(C)c23)cn1.O=S(=O)(O)O [mono-sulfate crystalline] | 1.1 |

Lookup: For Cn1cc(-c2cn(-c3ccc(OC(F)(F)F)cc3)c(=O)c3ncn(C)c23)cn1.O=S(=O)(O)O [mono-sulfate amorphous] , what is its reported pH (1 hr)?
Found: 1.2

====

# assay.details: Example 21 crossover pharmacokinetics of mono-tosylate and di-tosylate tablets in fasted dogs
# Assay type: in vivo, beagle dogs
# stated.conditions: male, beagle, dog, plasma, po, 200 mg/tablet per dog, Example 21, fasted dogs, 200 mg tablet PO, mean; LLOQ 20 ng/mL; read-out: Plasma concentration of Compound I at 0.25 hours
# Description: Pharmacokinetics parameters of formulations of Compound I and its salts in dogs were determined by orally administering a test formulation tablet at 200 mg of active (Compound I or salt) per dog. Blood samples were taken at various times after administration, plasma prepared, and submitted to analysis for parent drug using a qualified LC-MS-MS assay. Pharmacokinetics parameters derived from the plasma analytical data were determined using non-compartmental analysis. […]
measurement.name: concentration at 0.25 h

Lookup: Need concentration at 0.25 h, item Cc1ccc(S(=O)(=O)O)cc1.Cn1cc(-c2cn(-c3ccc(OC(F)(F)F)cc3)c(=O)c3ncn(C)c23)cn1 [mono-tosylate]
Found: 193 ng/mL

====

# assay.details: Approximate solubility in MeOH/MTBE at room temperature
# Format: physicochemical
# stated.conditions: methanol, organic solvent or mixture, read-out: approximate solubility in MeOH
measurement.name: solubility

Lookup: Recorded solubility of Cc1ccc(S(=O)(=O)O)cc1.Cn1cc(-c2cn(-c3ccc(OC(F)(F)F)cc3)c(=O)c3ncn(C)c23)cn1 [mono-tosylate] , please.
Found: 264 to 348 mg/mL
